PBM binding z-score: recorded values
Test system: RARb:RXRa (NR concentration 270 nM, RXRa partner concentration 90 nM)
methodSummary: PBM binding z-score (relative to random genomic background probes); higher = stronger binding; sequences stand for … in GC…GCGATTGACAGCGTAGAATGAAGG

sequence | PBM binding z-score
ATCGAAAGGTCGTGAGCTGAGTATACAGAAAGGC | 3.76
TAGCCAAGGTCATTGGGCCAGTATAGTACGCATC | 5.01
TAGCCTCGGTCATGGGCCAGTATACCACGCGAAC | 2.42
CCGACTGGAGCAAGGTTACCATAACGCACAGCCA | 0.876
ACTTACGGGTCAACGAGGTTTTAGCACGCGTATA | 4.07
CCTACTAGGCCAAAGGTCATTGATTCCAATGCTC | 4.79
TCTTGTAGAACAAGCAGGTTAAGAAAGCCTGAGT | 0.0626
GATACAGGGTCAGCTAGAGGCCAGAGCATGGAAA | 4.16
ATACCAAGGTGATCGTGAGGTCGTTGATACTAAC | 1.42
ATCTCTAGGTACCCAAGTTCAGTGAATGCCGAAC | 1
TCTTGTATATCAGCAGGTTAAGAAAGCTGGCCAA | 0.687
TGTATTAGTTGAAGGGCAACCGACGAGTCCGTTT | 1.5

* * *

Tested on: RARa homodimer (NR concentration 270 nM)
methodSummary: PBM binding z-score (relative to random genomic background probes); higher = stronger binding; sequences stand for … in GC…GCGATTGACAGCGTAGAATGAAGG
metric: PBM binding z-score

sequence | targetDesc | reported
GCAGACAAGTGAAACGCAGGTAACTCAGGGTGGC | RARa homodimer (NR concentration 270 nM) | -0.732
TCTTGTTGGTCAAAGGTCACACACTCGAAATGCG | RARa homodimer (NR concentration 270 nM) | 3.44
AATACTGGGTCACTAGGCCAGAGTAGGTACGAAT | RARa homodimer (NR concentration 270 nM) | 0.983
TGAATGAGGTTAAAGATCAAGGAACGTGGCGTCG | RARa homodimer (NR concentration 270 nM) | 0.0967
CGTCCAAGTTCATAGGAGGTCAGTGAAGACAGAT | RARa homodimer (NR concentration 270 nM) | 1.68
GGAAAGAGGGCAAAGTTGATAGCATCTGTCGACG | RARa homodimer (NR concentration 270 nM) | 0.527
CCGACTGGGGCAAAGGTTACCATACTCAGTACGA | RARa homodimer (NR concentration 270 nM) | 0.0257
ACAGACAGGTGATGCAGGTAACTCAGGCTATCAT | RARa homodimer (NR concentration 270 nM) | 0.231
ATCTCTAGGTACAGATAGTTCAGTGAATGCAAAT | RARa homodimer (NR concentration 270 nM) | 0.726
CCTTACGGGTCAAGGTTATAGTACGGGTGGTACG | RARa homodimer (NR concentration 270 nM) | 1.47
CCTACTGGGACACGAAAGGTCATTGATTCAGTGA | RARa homodimer (NR concentration 270 nM) | 1.59
TCATATAGGTAAGGGTGAAAGTCGAACGATATGA | RARa homodimer (NR concentration 270 nM) | 0.462
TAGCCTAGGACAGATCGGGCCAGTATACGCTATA | RARa homodimer (NR concentration 270 nM) | -1.42
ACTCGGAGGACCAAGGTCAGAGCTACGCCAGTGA | RARa homodimer (NR concentration 270 nM) | -0.14
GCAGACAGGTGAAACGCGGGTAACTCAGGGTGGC | RARa homodimer (NR concentration 270 nM) | -0.909
TCCTGTAGATCAGCAGGTTAAGAAAGCTGGCCAA | RARa homodimer (NR concentration 270 nM) | -0.442
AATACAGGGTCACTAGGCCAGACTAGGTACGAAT | RARa homodimer (NR concentration 270 nM) | 0.731
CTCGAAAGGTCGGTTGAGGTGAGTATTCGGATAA | RARa homodimer (NR concentration 270 nM) | 0.255
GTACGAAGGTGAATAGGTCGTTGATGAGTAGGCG | RARa homodimer (NR concentration 270 nM) | 0.356
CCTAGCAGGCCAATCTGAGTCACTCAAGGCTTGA | RARa homodimer (NR concentration 270 nM) | -0.569
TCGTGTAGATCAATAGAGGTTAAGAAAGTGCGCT | RARa homodimer (NR concentration 270 nM) | 0.575
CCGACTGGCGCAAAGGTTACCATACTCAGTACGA | RARa homodimer (NR concentration 270 nM) | -0.0622
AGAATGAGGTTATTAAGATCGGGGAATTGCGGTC | RARa homodimer (NR concentration 270 nM) | 0.527
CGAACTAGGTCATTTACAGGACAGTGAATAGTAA | RARa homodimer (NR concentration 270 nM) | 0.283
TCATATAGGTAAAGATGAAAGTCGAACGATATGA | RARa homodimer (NR concentration 270 nM) | 0.0923
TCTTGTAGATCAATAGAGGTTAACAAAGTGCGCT | RARa homodimer (NR concentration 270 nM) | 0.875
